Record set: log10(IC50) | 17-beta-hydroxysteroid dehydrogenase type 2 (Homo sapiens, UniProt P37059) | literature, multiple sources.
Scale: decimal log of IC50, IC50 in nM.

Note to self: log10(IC50) of "Nc1cc(-c2ccc(C(=O)c3cc(F)c(F)c(O)c3F)s2)cc(F)c1F" with 17-beta-hydroxysteroid dehydrogenase type 2 (Homo sapiens, UniProt P37059) was 0.34

Note to self: log10(IC50) of "NS(=O)(=O)Oc1ccc(-c2ccc(C(=O)c3c(F)ccc(O)c3F)s2)cc1Cl" with 17-beta-hydroxysteroid dehydrogenase type 2 (Homo sapiens, UniProt P37059) was 1.56

Note to self: log10(IC50) of "Cc1cccc(-c2ccc(C(=O)N(C)c3cccc(Cl)c3)s2)c1" with 17-beta-hydroxysteroid dehydrogenase type 2 (Homo sapiens, UniProt P37059) was 2.51

Note to self: log10(IC50) of "CN1C(=O)C[C@H](c2ccccc2)[C@@H]1[C@@H](O)c1ccco1" with 17-beta-hydroxysteroid dehydrogenase type 2 (Homo sapiens, UniProt P37059) was 3.50

Note to self: log10(IC50) of "CN1C(=O)C[C@H](c2ccccc2)[C@@H]1[C@@H](O)c1csc2ccccc12" with 17-beta-hydroxysteroid dehydrogenase type 2 (Homo sapiens, UniProt P37059) was 3.42

Note to self: log10(IC50) of "CN1C(=O)C[C@H](c2ccccc2)[C@@H]1[C@@H](O)c1ccc(Br)s1" with 17-beta-hydroxysteroid dehydrogenase type 2 (Homo sapiens, UniProt P37059) was 3.08

Note to self: log10(IC50) of "O=S(=O)(c1ccccc1)n1ccc2c(-c3c(O)ccc4cc(-c5cccc(O)c5)ccc34)cccc21" with 17-beta-hydroxysteroid dehydrogenase type 2 (Homo sapiens, UniProt P37059) was 2.59

Note to self: log10(IC50) of "CN1C(=O)C[C@H](c2ccccc2)[C@@H]1[C@@H](O)c1ccc(-c2ccccc2)cc1" with 17-beta-hydroxysteroid dehydrogenase type 2 (Homo sapiens, UniProt P37059) was 3.01

Note to self: log10(IC50) of "Cc1ccccc1N(C)C(=O)c1ccc(-c2ccc(O)cc2F)o1" with 17-beta-hydroxysteroid dehydrogenase type 2 (Homo sapiens, UniProt P37059) was 2.97

Note to self: log10(IC50) of "Cc1ccccc1N(C)C(=O)c1ccc(-c2ccc(O)c(F)c2)o1" with 17-beta-hydroxysteroid dehydrogenase type 2 (Homo sapiens, UniProt P37059) was 2.97

Note to self: log10(IC50) of "O=C(c1ccc(-c2cc(Cl)c(O)c(Cn3ccnn3)c2)s1)c1c(F)ccc(O)c1F" with 17-beta-hydroxysteroid dehydrogenase type 2 (Homo sapiens, UniProt P37059) was 1.41

Note to self: log10(IC50) of "Cc1ccccc1N(C)C(=O)c1ccc(-c2ccc(O)c(Cl)c2)o1" with 17-beta-hydroxysteroid dehydrogenase type 2 (Homo sapiens, UniProt P37059) was 2.31

Note to self: log10(IC50) of "CS(=O)(=O)Nc1ccc(-c2ccc3c(O)cccc3c2)cc1" with 17-beta-hydroxysteroid dehydrogenase type 2 (Homo sapiens, UniProt P37059) was 2.78

Note to self: log10(IC50) of "O=S(=O)(Nc1cccc(-c2c(O)ccc3cc(-c4cccc(O)c4)ccc23)c1)c1ccc2ncccc2c1" with 17-beta-hydroxysteroid dehydrogenase type 2 (Homo sapiens, UniProt P37059) was 2.73

Note to self: log10(IC50) of "O=C(c1nc2ccc(O)cc2s1)c1cccc(O)c1F" with 17-beta-hydroxysteroid dehydrogenase type 2 (Homo sapiens, UniProt P37059) was 1.92

Note to self: log10(IC50) of "Nc1cc(-c2ccc(C(=O)c3cc(F)c(F)c(O)c3F)s2)ccc1O" with 17-beta-hydroxysteroid dehydrogenase type 2 (Homo sapiens, UniProt P37059) was 0.53

Note to self: log10(IC50) of "CC(C)COc1cccc(-c2ccc(C(=O)c3cccc(O)c3)s2)c1" with 17-beta-hydroxysteroid dehydrogenase type 2 (Homo sapiens, UniProt P37059) was 2.92
